- target_system: SARS2 protease (Severe acute respiratory syndrome coronavirus 2, UniProt P0DTD1)
- Construct: SARS2 protease was added to a final concentration of 30 nM
- method_notes: SARS-CoV-2 protease inhibition assay (SARS2 FRET protease assay)
- Assay type: biochemical
- assay_conditions: IC50 (μM), SARS2 protease 30 nM, peptide substrate 1.3 μM, 120 minutes at 37° C., compounds 20 μM to 0.075 nM
Exam item: assign y to entries whose IC50 is below 0.04 µM and n to entries at or above 0.04 µM. Note that a value of exactly 0.04 µM receives n.

{"columns": ["compound", "target_system", "category"],
 "data": [
  ["CCC[C@H](NC(=O)OC(c1ccccc1)C(F)(F)c1cccc(Cl)c1)C(=O)N[C@H](C=O)C[C@@H]1CCNC1=O (some centres unmarked)", "SARS2 protease (Severe acute respiratory syndrome coronavirus 2, UniProt P0DTD1)", "y"],
  ["CC(C)C[C@H](NC(=O)O[C@@H](c1cccc(Cl)c1)C1(c2cccc(Cl)c2)CC1)C(=O)N[C@@H](C[C@@H]1CCNC1=O)C(=O)C(=O)NC1CC1", "SARS2 protease (Severe acute respiratory syndrome coronavirus 2, UniProt P0DTD1)", "y"],
  ["CCCC[C@H](NC(=O)OC(c1ccccc1)C(F)(F)c1cccc(Cl)c1)C(=O)N[C@@H](C[C@@H]1CCNC1=O)C(=O)C(=O)NCCN(CC)CC (some centres unmarked)", "SARS2 protease (Severe acute respiratory syndrome coronavirus 2, UniProt P0DTD1)", "n"],
  ["O=C(N[C@@H](Cc1ccccc1)C(=O)N[C@@H](C[C@@H]1CCNC1=O)C(=O)C(=O)NC1CC1)OC(c1ccccc1)C(F)(F)c1cccc(Cl)c1 (some centres unmarked)", "SARS2 protease (Severe acute respiratory syndrome coronavirus 2, UniProt P0DTD1)", "n"]
]}

====

- target_system: SARS2 protease (Severe acute respiratory syndrome coronavirus 2, UniProt P0DTD1)
- Construct: SARS2 protease was added to a final concentration of 30 nM
- method_notes: SARS-CoV-2 protease inhibition assay (SARS2 FRET protease assay)
- Assay type: biochemical
- assay_conditions: IC50 (μM), SARS2 protease 30 nM, peptide substrate 1.3 μM, 120 minutes at 37° C., compounds 20 μM to 0.075 nM

{"columns": ["compound", "IC50, µM"],
 "data": [
  ["O=C[C@H](C[C@@H]1CCCNC1=O)NC(=O)[C@H](CC1CCCCC1)NC(=O)O[C@H](c1ccccc1)C(F)(F)c1cccc(Cl)c1", 0.611],
  ["CCCC[C@H](NC(=O)OC(c1ccccc1)C1(c2cccc(F)c2)CC1)C(=O)N[C@H](C=O)C[C@@H]1CCNC1=O (stereo partly shown)", 0.003],
  ["CCCC[C@H](NC(=O)O[C@@H](c1ccccc1)C(F)(F)c1cccc(F)c1)C(=O)N[C@@H](C[C@@H]1CCNC1=O)C(=O)C(=O)NCC", 0.122],
  ["CCNC(=O)C(=O)[C@H](C[C@@H]1CCNC1=O)NC(=O)[C@H](Cc1ccccc1)NC(=O)OC(c1ccccc1)C(F)(F)c1cccc(Cl)c1 (stereo partly shown)", 0.638]
]}

====

- target_system: SARS2 protease (Severe acute respiratory syndrome coronavirus 2, UniProt P0DTD1)
- Construct: SARS2 protease was added to a final concentration of 30 nM
- method_notes: SARS-CoV-2 protease inhibition assay (SARS2 FRET protease assay)
- Type: biochemical
- assay_conditions: IC50 (μM), SARS2 protease 30 nM, peptide substrate 1.3 μM, 120 minutes at 37° C., compounds 20 μM to 0.075 nM
measurement_name: IC50 (µM)

{"columns": ["compound", "endpoint_value"],
 "data": [
  ["CC(C)C[C@H](NC(=O)O[C@H](c1cccc(F)c1)C(C)(C)c1cccc(Cl)c1)C(=O)N[C@@H](C[C@@H]1CCNC1=O)C(=O)C(=O)NC1CC1", 0.31],
  ["CCCC[C@H](NC(=O)OC(c1ccccc1)C(F)(F)c1cccc(Cl)c1)C(=O)N[C@@H](C[C@@H]1CCNC1=O)C(=O)C(=O)NC1CC1 (stereo partly shown)", 0.13],
  ["CC(C)C[C@H](NC(=O)O[C@@H](c1ccccc1)C(F)(F)c1cccc(Cl)c1)C(=O)N[C@@H](C[C@@H]1CCNC1=O)C(=O)C(=O)NC1CC1", 0.0004],
  ["O=C(N[C@@H](CC1CCCCC1)C(=O)N[C@@H](C[C@@H]1CCNC1=O)C(=O)C(=O)NC1CC1)O[C@@H](c1ccccc1)C(F)(F)c1cccc(F)c1", 0.817]
]}
